Data origin: patent US20030232101A1

System: HIV-1
experiment: HeLa CD4 LTR β-gal HIV-1 attachment assay (Experimental Example 1)
Type: cell-based
assay_setup: Human immunodeficiency virus 1, HeLa, Experiment 1; pretreat 0 h
Please respond with reported IC50 for every item in the list.

Query string: Requested field: IC50. Item: CC1=CCC2C(C1)c1c(O)cc(C(C)(C)CCCC(C)C)cc1OC2(C)C (stereo not shown) [IMG509]
Result string: > 50 µM

Query string: Thanks! And COc1cc(C(C)(C)CCCC(C)C)cc(OC)c1OC [IMG507] ?
Result string: > 50 µM

Query string: Thanks! And COc1cc(-c2ccc(/N=N/c3ccc4c(S(=O)(=O)O)cc(S(=O)(=O)O)c(N)c4c3O)c(OC)c2)ccc1/N=N/c1ccc2c(S(=O)(=O)O)cc(S(=O)(=O)O)c(N)c2c1O [CSB, Chicago Sky Blue, reference compound] ?
Result string: 1.1 µg/mL

Query string: Thanks! And Cc1c(O)cc(C(C)(C)CCCC(C)C)cc1O [IMG510] ?
Result string: > 50 µM
